Here we list compounds with their recorded pIC50 when tested on autotaxin (ATX) enzyme (Homo sapiens, UniProt Q13822).
Numbers only, as −log10 of the molar value.

Go through the list and state pIC50 for each entry.
1. O=C(c1cnc(NC2Cc3ccc(F)cc3C2)nc1)N1CCC(COCc2c[nH]nn2)CC1 (centres unmarked) [Compound I-7]
2. O=C(c1cnc(NC2Cc3ccccc3C2)nc1)N1CC2(CC(OCc3c[nH]nn3)C2)C1 [Compound I-9]
3. O=C(c1cnc(NC2Cc3cc(F)c(F)cc3C2)nc1)N1CCC(COCc2c[nH]nn2)CC1 [Compound I-8]
4. O=C(c1cnc(NC2Cc3ccc(F)cc3C2)nc1)N1CC2(CC(OCc3c[nH]nn3)C2)C1 (centres unmarked) [Compound I-10]
5. O=C(c1cnc(NC2Cc3ccccc3C2)nc1)N1CCC(COCc2c[nH]nn2)C(F)C1 (centres unmarked) [Compound I-6]

1: 8.94; 2: 8.84; 3: 8.69; 4: 8.97; 5: 8.84

Cited source for all entries: patent US20220204479A1
